# systemUnderTest: 92 kDa gelatinase (MMP9) (Homo sapiens)
# Sequence (P14780 107-707 limits assumed): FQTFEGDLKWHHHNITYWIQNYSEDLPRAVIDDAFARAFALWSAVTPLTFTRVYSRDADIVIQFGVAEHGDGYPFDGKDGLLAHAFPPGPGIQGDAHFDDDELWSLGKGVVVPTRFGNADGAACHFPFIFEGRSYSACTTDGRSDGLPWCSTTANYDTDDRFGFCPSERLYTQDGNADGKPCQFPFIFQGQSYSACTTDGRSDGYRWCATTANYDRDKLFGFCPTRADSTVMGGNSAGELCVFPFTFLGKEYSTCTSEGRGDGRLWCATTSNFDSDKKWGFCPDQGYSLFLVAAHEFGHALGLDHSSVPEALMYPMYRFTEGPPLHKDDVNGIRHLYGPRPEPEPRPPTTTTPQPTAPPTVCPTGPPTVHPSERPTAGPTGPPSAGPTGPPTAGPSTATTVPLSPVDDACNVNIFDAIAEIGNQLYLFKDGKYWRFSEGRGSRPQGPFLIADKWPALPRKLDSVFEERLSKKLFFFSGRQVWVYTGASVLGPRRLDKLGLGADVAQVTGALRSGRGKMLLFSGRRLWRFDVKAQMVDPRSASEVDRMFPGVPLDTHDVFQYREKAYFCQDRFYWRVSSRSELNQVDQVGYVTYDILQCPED
# methodSummary: MMP9 enzyme inhibition assay (fluorogenic peptide substrate McaPLGLDpaAR)
# testSettings: recombinant human 92 kDa gelatinase, 37° C., 2 hours
readoutType: IC50

Illustrative cases are given below, each with its answer.
[[record]]
structurestring = "CC(C)C[C@@H](C(=O)N[C@H](c1noc(-c2cccs2)n1)C(C)(C)C)[C@H](O)C(=O)O"
readouttype = "IC50"
assayresult = "1000 to 10000 nM"

[[record]]
structurestring = "CC(C)C[C@@H](C(=O)N[C@H](c1nc(-c2ccccc2)no1)C(C)(C)C)[C@H](O)C(=O)NO"
readouttype = "IC50"
assayresult = "100 to 1000 nM"

[[record]]
structurestring = "C=CC[C@H](C(=O)NO)[C@@H](CC(C)C)C(=O)N[C@H](c1nc(C)no1)C(C)(C)C"
readouttype = "IC50"
assayresult = "< 100 nM"

[[record]]
structurestring = "C=CC[C@H](C(=O)NO)[C@@H](CC(C)C)C(=O)N[C@@H](Cc1ccccc1)c1nc(C(C)C)no1"
readouttype = "IC50"
assayresult = "< 100 nM"

[[record]]
structurestring = "CC(C)C[C@@H](C(=O)N[C@H](c1noc(C2CCCC2)n1)C(C)(C)C)[C@H](O)C(=O)NO"
readouttype = "IC50"
assayresult = "1000 to 10000 nM"


Okay, now this compound:
Query: So what does the record say about IC50 for CC(C)C[C@@H](C(=O)N[C@H](c1noc(C2CC2)n1)C(C)(C)C)[C@H](O)C(=O)NO ?
Response: 100 to 1000 nM

====

Below, each entry is listed alongside its reported IC50.
# systemUnderTest: 92 kDa gelatinase (MMP9) (Homo sapiens)
# methodSummary: MMP9 enzyme inhibition assay (fluorogenic peptide substrate McaPLGLDpaAR)
# testSettings: recombinant human 92 kDa gelatinase, 37° C., 2 hours

# example entries with known answers
[[record]]
structurestring = "CCc1nc([C@@H](NC(=O)[C@H](CC(C)C)[C@H](O)C(=O)NO)C(C)(C)C)no1"
systemundertest = "92 kDa gelatinase (MMP9) (Homo sapiens)"
readouttype = "IC50"
assayresult = "0.1 to 1 µM"

[[record]]
structurestring = "CC(C)C[C@@H](C(=O)N[C@H](c1noc(Cc2cccs2)n1)C(C)(C)C)[C@H](O)C(=O)NO"
systemundertest = "92 kDa gelatinase (MMP9) (Homo sapiens)"
readouttype = "IC50"
assayresult = "1 to 10 µM"

[[record]]
structurestring = "CCCCCCCCCCCCCCCC[C@H](CC(=O)O)C(=O)N[C@H](c1nc(-c2ccccc2)no1)C(C)(C)C"
systemundertest = "92 kDa gelatinase (MMP9) (Homo sapiens)"
readouttype = "IC50"
assayresult = "> 10 µM"

[[record]]
structurestring = "CC(C)C[C@@H](C(=O)N[C@H](c1noc(-c2ccccc2)n1)C(C)(C)C)[C@H](O)C(=O)NO"
systemundertest = "92 kDa gelatinase (MMP9) (Homo sapiens)"
readouttype = "IC50"
assayresult = "0.1 to 1 µM"


# ---- query molecule ----
Query: # get_value(readout='IC50', item= CC(C)(C)[C@H](NC(=O)[C@H](C/C=C/c1ccccc1)[C@H](O)C(=O)NO)c1nc(-c2ccccc2)no1 )
Response: > 10 µM

Data origin, for the record: patent US20100035943A1
